System: CEM cells HIV-1 protection, formazan growth assay
Experiment: NCI AIDS Antiviral Assay
Conditions: measured here: growth of uninfected CEM cells
pIC50: −log10 of the molar value.
In this section we review reported pIC50 values for a set of molecules.

>  <molecule>
c1ccc(C[n+]2ccc3c(c2)CCCC3)cc1

>  <experimental-system>
CEM cells HIV-1 protection, formazan growth assay

>  <pIC50>
4.39

$$$$
>  <molecule>
COc1cc2oc(-c3ccc4c(c3)OCO4)c(OC)c(=O)c2c(OC)c1OC

>  <experimental-system>
CEM cells HIV-1 protection, formazan growth assay

>  <pIC50>
< 3.70

$$$$
>  <molecule>
Cc1cnc2c(c1)C(=O)N(c1ccc(Oc3ccccc3)cc1)S2(=O)=O

>  <experimental-system>
CEM cells HIV-1 protection, formazan growth assay

>  <pIC50>
< 3.70

$$$$
>  <molecule>
c1cnn(P2(n3cccn3)=NP(n3cccn3)(n3cccn3)=NP(n3cccn3)(n3cccn3)=NP(n3cccn3)(n3cccn3)=NP(n3cccn3)(n3cccn3)=NP(n3cccn3)(n3cccn3)=N2)c1

>  <experimental-system>
CEM cells HIV-1 protection, formazan growth assay

>  <pIC50>
< 3.70

$$$$
>  <molecule>
O=S(Cc1ccccc1)/C(=C/NC(=S)Nc1ccccc1)c1ccccc1 (stereo not drawn)

>  <experimental-system>
CEM cells HIV-1 protection, formazan growth assay

>  <pIC50>
< 3.70

$$$$
>  <molecule>
CCN(CC)C(=O)N1CN(c2ccccc2)C2(CCN(CCCSc3ccc(F)cc3)CC2)C1=O

>  <experimental-system>
CEM cells HIV-1 protection, formazan growth assay

>  <pIC50>
5.01

$$$$
>  <molecule>
COc1cc(N=Nc2ccccc2)cc(/C=N\[N-]C(N)=S)c1[O-].COc1cc(N=Nc2ccccc2)cc(/C=N\[N-]C(N)=S)c1[O-].[Fe+4]

>  <experimental-system>
CEM cells HIV-1 protection, formazan growth assay

>  <pIC50>
< 4.58

$$$$
>  <molecule>
CNC(=O)[C@H](Cc1ccccc1)NC(=O)N(CCC#N)CCN(C(=O)N[C@@H](Cc1ccccc1)C(=O)OC)c1ccccc1

>  <experimental-system>
CEM cells HIV-1 protection, formazan growth assay

>  <pIC50>
< 3.70

$$$$

----------
System: CEM cells HIV-1 protection, formazan growth assay
Experiment: NCI AIDS Antiviral Assay
Settings: measured here: growth of uninfected CEM cells
pIC50: −log10 of the molar value.
In this section we review reported pIC50 values for a set of compounds.

>  <compound>
COC(=O)c1cc(C(=CCC23CC4CC(CC(C4)C2)C3)c2cc(Cl)c(OC)c(C(=O)OC)c2)cc(Cl)c1OC

>  <op>
<

>  <pIC50>
4.76

$$$$
>  <compound>
O=c1[nH]c(Nc2ccc(Cl)cc2)nc2nc[nH]c12

>  <op>
=

>  <pIC50>
4.05

$$$$
>  <compound>
CCCCOCOc1ccccc1P1(=O)COc2ccccc2OC1

>  <op>
=

>  <pIC50>
4.35

$$$$
>  <compound>
CC(C)C1OC23CCCCC2C(C#N)(C#N)C1(C#N)C(=N)O3 (stereo unspecified)

>  <op>
=

>  <pIC50>
5.23

$$$$
>  <compound>
O=c1c(I)c[nH]cc1I

>  <op>
<

>  <pIC50>
3.70

$$$$
>  <compound>
CC(C)[C@](O)(C(=O)OCC1=CC[N+]2([O-])CC[C@@H](O)[C@@H]12)[C@H](C)O (stereo partly specified)

>  <op>
<

>  <pIC50>
3.40

$$$$
>  <compound>
CSc1nc(Nc2ccccc2Cl)c2c(N)nn(C)c2n1

>  <op>
<

>  <pIC50>
3.70

$$$$
>  <compound>
O=c1ccn2n1Cc1ccccc1C2

>  <op>
<

>  <pIC50>
3.70

$$$$
>  <compound>
CC1=CC(=O)c2c(C=O)c(O)c(O)c(C(C)C)c2C1=O

>  <op>
=

>  <pIC50>
5.72

$$$$
>  <compound>
Cn1cc/c(=N\N=c2/ccn(C)c3ccccc23)c2ccccc21

>  <op>
=

>  <pIC50>
5.30

$$$$
>  <compound>
Nn1c(CNc2ccc(-c3nnc(Nc4ccc(Cl)cc4)n3N)cc2)nnc1Nc1ccc(Cl)cc1

>  <op>
=

>  <pIC50>
4.17

$$$$

----------
System: CEM cells HIV-1 protection, formazan growth assay
Test: NCI AIDS Antiviral Assay;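 active means compounds giving half or more protection of infected cells from virus-caused growth loss, again on retest; inactive means the rest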
Possible outcomes: Yes for active, No for inactive

>  <compound>
NC(=S)Nc1ccc2c(c1)oc1ccccc12

>  <experimental-system>
CEM cells HIV-1 protection, formazan growth assay

>  <label-value>
No

$$$$
>  <compound>
CC[S+](C)c1ccc(-c2c3nc(c(-c4ccc([S+](C)CC)cc4)c4ccc([nH]4)c(-c4ccc([S+](C)CC)cc4)c4nc(c(-c5ccc([S+](C)CC)cc5)c5ccc2[nH]5)C=C4)C=C3)cc1 (stereo not given)

>  <experimental-system>
CEM cells HIV-1 protection, formazan growth assay

>  <label-value>
Yes

$$$$
>  <compound>
CCSC1=N/C(=C\c2ccco2)C(NN)=N1

>  <experimental-system>
CEM cells HIV-1 protection, formazan growth assay

>  <label-value>
No

$$$$
>  <compound>
O=S(=O)(O)c1cc(N=Cc2cc(S(=O)(=O)O)c3cccnc3c2O)ccc1/C=C\c1ccc(N=Cc2cc(S(=O)(=O)O)c3cccnc3c2O)cc1S(=O)(=O)O

>  <experimental-system>
CEM cells HIV-1 protection, formazan growth assay

>  <label-value>
No

$$$$
>  <compound>
O=C(CSc1nnc(Cc2ccccc2)o1)Nc1ccc(Cl)cc1Cl

>  <experimental-system>
CEM cells HIV-1 protection, formazan growth assay

>  <label-value>
No

$$$$

----------
In this section we review reported IC50 values for a set of molecules.
Test system: CEM cells HIV-1 protection, formazan growth assay
Assay: NCI AIDS Antiviral Assay
Conditions: measured here: growth of uninfected CEM cells
Where a SMILES comes first, the peptide text is derived from it. The star is where a group is joined. Cbz = O=C(OCc1ccccc1)*

>  <molecule>
S=C(NC1CCCCC1)SSSSC(=S)NC1CCCCC1

>  <IC50>
33.1 µM

$$$$
>  <molecule>
COC(=O)CN1C(=O)C2(C(=O)OC)OC1(c1ccc([N+](=O)[O-])cc1)C1C(=O)N(c3ccccc3)C(=O)C12 (stereo not given)

>  <IC50>
> 200 µM

$$$$
>  <molecule>
c1csc(-c2nn3c(C45CC6CC(CC(C6)C4)C5)nnc3s2)c1

>  <IC50>
> 200 µM

$$$$
>  <molecule>
COC(=O)C(CC(C)C)NC(=O)C(CCCN=C(N)N)NC(=O)OCc1ccccc1 (stereo not drawn) (Cbz-Arg-Leu-OMe; configuration not given here)

>  <IC50>
> 200 µM

$$$$
>  <molecule>
CCOC(=O)c1c(NC(=O)c2ccccc2)sc2c1CCC2

>  <IC50>
> 151 µM

$$$$

----------
System: CEM cells HIV-1 protection, formazan growth assay
Test: NCI AIDS Antiviral Assay
Conditions: measured here: growth of uninfected CEM cells
pIC50: −log10 of the molar value.

>  <compound>
CN=C(N)N=Nc1c(O)[nH]c2ccccc12

>  <op>
<

>  <pIC50>
3.70

$$$$
>  <compound>
CCOC(=O)N1N=C(c2ccccc2)OC2(N3CCOCC3)CCC(C(C)(C)C)CC12 (stereo not given)

>  <op>
=

>  <pIC50>
4.50

$$$$
>  <compound>
COc1ccc(N2C(=O)C3c4[nH]c5ccc(OCc6ccccc6)cc5c4C4CCC(c5ccccc5)CC4C3C2=O)cc1 (stereo not given)

>  <op>
<

>  <pIC50>
4.00

$$$$
>  <compound>
COc1cc(C)cc2c1C(=O)C(Br)=CC2=O

>  <op>
=

>  <pIC50>
5.71

$$$$
>  <compound>
CCCCN(CCCC)CCNc1ccc(Cl)c2oc3cc(C)ccc3c(=O)c12

>  <op>
<

>  <pIC50>
4.66

$$$$
>  <compound>
COc1ccc(NC(=O)CSc2nnc(-c3ccc(NC(C)=O)cc3)o2)cc1

>  <op>
=

>  <pIC50>
4.72

$$$$
>  <compound>
COc1ccc(C(=O)N/N=C/c2c(C)n(C)n(-c3ccccc3)c2=O)cc1

>  <op>
<

>  <pIC50>
3.70

$$$$
>  <compound>
C[C@]12CC[C@H](OC(=O)CCC(=O)O)C[C@H]1CC[C@@H]1[C@@H]2CC[C@]2(C)C(c3ccc(=O)oc3)CC[C@]12O (stereo not given in full)

>  <op>
=

>  <pIC50>
7.79

$$$$
>  <compound>
CCOC(=O)/C(=C\c1ccco1)C(C)=O

>  <op>
<

>  <pIC50>
3.62

$$$$
>  <compound>
C[N+](C)(C)CC1CCCCCCCCCCC1=O (stereo not given)

>  <op>
=

>  <pIC50>
3.83

$$$$
>  <compound>
CC1=C(C(=O)Nc2ccccc2C)C(c2ccc([N+](=O)[O-])cc2)C(C(=O)Nc2ccccc2C)=C(C)N1

>  <op>
<

>  <pIC50>
4.98

$$$$
>  <compound>
Cc1c(CN2CCN(C)CC2)c(O)c2c(=O)c3c(O)c(CN4CCN(C)CC4)c(O)c4c5c(O)c(CN6CCN(C)CC6)c(O)c6c(=O)c7c(O)c(CN8CCN(C)CC8)c(C)c8c1c2c(c34)c(c78)c65

>  <op>
<

>  <pIC50>
4.99

$$$$
>  <compound>
Cc1c(-c2ccccc2)c(=O)oc2c3c(ccc12)OC(C)(C)[C@H](OC(=O)C12CCC(C)(C(=O)O1)C2(C)C)[C@@H]3OC(=O)C12CCC(C)(C(=O)O1)C2(C)C (stereo not given in full)

>  <op>
<

>  <pIC50>
4.00

$$$$
>  <compound>
O=C1CSC(/C(=C/c2ccccc2)c2nc3ccccc3[nH]2)=N1

>  <op>
=

>  <pIC50>
4.65

$$$$
>  <compound>
O=C(c1ccccc1)c1nc2ccc(Cl)cc2cc1C(Br)Br

>  <op>
<

>  <pIC50>
5.48

$$$$
>  <compound>
CCCc1cc(=O)oc2c3c(c4c(c12)OC(C)(C)CC4)O[C@H](C)C(C)C3O (stereo not given in full)

>  <op>
=

>  <pIC50>
4.60

$$$$
>  <compound>
N/N=C1/C(=N/O)CCc2nonc21

>  <op>
<

>  <pIC50>
3.70

$$$$
>  <compound>
CCCC1OC(=O)c2ccccc2S1 (stereo not given)

>  <op>
<

>  <pIC50>
3.70

$$$$
>  <compound>
NC(=O)CNC(=O)c1ccccc1SC(=O)NCCBr

>  <op>
=

>  <pIC50>
5.00

$$$$
>  <compound>
CCOC(=O)C(C)(C)Oc1ccc(N=[N+]=[N-])cc1

>  <op>
<

>  <pIC50>
3.70

$$$$
